Each item that follows carries a reported Fold Enrichment relative to AAV9, Brain (NHP).
- Test system: brains, heart, liver, muscle, and DRG of the NHPs
- testMethodNotes: Maturation of TTM-001 and TTM-002 capsids, NGS enrichment in NHP tissues
- Format: in vivo
- assayConditions: NGS fold-enrichment of RNA, NHP brain, relative to AAV9 control
quantityMeasured: Fold Enrichment relative to AAV9, Brain (NHP) (fold)

INSERT INTO results (residues, unittext, reportedmeasurement) VALUES
  ('KTVHGNGSPHSKAQNQQT', 'fold', 90.073),
  ('KTINGHDSPHKSGQSVPT', 'fold', 77.840),
  ('KTVNGHDSPHKSGQNLHT', 'fold', 88.080),
  ('KNTNGSGSPHSKAQNQQT', 'fold', 78.445),
  ('KTENVSGSPHSKAQNQQT', 'fold', 88.506),
  ('KTINGSGSPHSKAQKFET', 'fold', 75.788),
  ('KTEGKHDSPHKSGQNQQT', 'fold', 98.384),
  ('KTENISGSPHSKAQNQQT', 'fold', 76.072),
  ('KTVNGSGSPHSKAPNQHT', 'fold', 117.207);

* * *

- Test system: brains, heart, liver, muscle, and DRG of the NHPs
- testMethodNotes: Maturation of TTM-001 and TTM-002 capsids, NGS enrichment in NHP tissues
- Type: in vivo
- assayConditions: NHP liver RNA; NGS; TTM-001 and TTM-002 matured AAV capsid variants; relative to AAV9 control
quantityMeasured: Fold Enrichment relative to AAV9, Liver RNA (NHP) (fold)

INSERT INTO assay_data (residues, targetentity, reportedmeasurement) VALUES
  ('KTINGSGSPHVNCQNQQT', 'brains, heart, liver, muscle, and DRG of the NHPs', 30.010),
  ('KTINGSGSPHSKARWQQT', 'brains, heart, liver, muscle, and DRG of the NHPs', 45.017),
  ('KTINGSGSPHSFQINQQT', 'brains, heart, liver, muscle, and DRG of the NHPs', 17.418),
  ('KTINGSGSPHSKACRLQT', 'brains, heart, liver, muscle, and DRG of the NHPs', 12.297),
  ('KTINGSGSPHRIKQNQQT', 'brains, heart, liver, muscle, and DRG of the NHPs', 21.720),
  ('KTINGSGSPHSFFGNQQT', 'brains, heart, liver, muscle, and DRG of the NHPs', 38.088),
  ('KTKLCSGSPHSKAQNQQT', 'brains, heart, liver, muscle, and DRG of the NHPs', 12.570),
  ('KTINGSGSPHSKGCTQQT', 'brains, heart, liver, muscle, and DRG of the NHPs', 26.068),
  ('KTINGSGSPHLVYQNQQT', 'brains, heart, liver, muscle, and DRG of the NHPs', 14.196),
  ('KTINGSGSPHSCSRNQQT', 'brains, heart, liver, muscle, and DRG of the NHPs', 40.372),
  ('KTINGSGSPHSKMPCQQT', 'brains, heart, liver, muscle, and DRG of the NHPs', 15.343),
  ('KTINGSGSPHSKSEQQQT', 'brains, heart, liver, muscle, and DRG of the NHPs', 11.785),
  ('KTINGSGSPHPSCQNQQT', 'brains, heart, liver, muscle, and DRG of the NHPs', 27.796),
  ('KTICGRGSPHSKAQNQQT', 'brains, heart, liver, muscle, and DRG of the NHPs', 18.923),
  ('KTINGSSSPHRCAQNQQT (peptide inserted in AAV capsid)', 'brains, heart, liver, muscle, and DRG of the NHPs', 28.887),
  ('KPRWGSGSPHSKAQNQQT', 'brains, heart, liver, muscle, and DRG of the NHPs', 51.637);

* * *

- Test system: brains, heart, liver, muscle, and DRG of the NHPs
- testMethodNotes: Maturation of TTM-001 and TTM-002 capsids, NGS enrichment in NHP tissues
- Type: in vivo
- assayConditions: NHP liver, RNA; relative to AAV9 control
// label = true (1) if Fold Enrichment relative to AAV9, Liver RNA (NHP) is not less than 0.1 fold, otherwise false (0)

INSERT INTO assay_data (residues, assignedcategory) VALUES
  ('KTEHVSGSPHSKAQNQQT', 'true (1)'),
  ('KTVNGGGSPHSKAQNLQT', 'false (0)'),
  ('KNINGSGSPHSKAQNHQT', 'true (1)'),
  ('KAINGSGSPHSKAHNQET', 'false (0)'),
  ('KGVLGSGSPHSKAQNQQT', 'true (1)'),
  ('KTINGSGSPHSKAQYQNT', 'false (0)'),
  ('KNVNGSGSPHSKAQNQQT', 'true (1)'),
  ('KTINGSGSPHSKAQLHHT', 'true (1)'),
  ('KTWQNSGSPHSKAQNQQT', 'true (1)'),
  ('KTEGLSGSPHSKAQNQQT', 'true (1)'),
  ('KTINGSGSPHSKAQSTMT', 'true (1)'),
  ('KTIDGSGSPHSKSQNHQT', 'false (0)'),
  ('KTELGSGSPHSKAQNQQT', 'true (1)'),
  ('KNNLGSGSPHSKAQNQQT', 'true (1)'),
  ('KGGEGSGSPHSKAQNQQT', 'false (0)'),
  ('KTINGGGSPHSKAQRQQT', 'true (1)'),
  ('KTINGSGSPHSKAQLPST', 'true (1)'),
  ('KTINGSGSSHSKAQNQQT', 'true (1)'),
  ('KTINGSGSPHSKAQRDIT', 'true (1)'),
  ('KSDIGSGSPHSKAQNQQT', 'true (1)'),
  ('KTINGTGSPHSKAPNQLT', 'true (1)'),
  ('KNSLGSGSPHSKAQNQQT', 'true (1)'),
  ('KTINGSGSPHSKAQPLGT', 'true (1)'),
  ('KAINGSGSPHSKAQDKQT', 'false (0)'),
  ('KTRDASGSPHSKAQNQQT', 'true (1)'),
  ('KTINGNGSPHSKSQNQHT', 'false (0)'),
  ('KTINGSGSPHSKAQRMNT', 'true (1)'),
  ('KTVIGSGSPHSKSQNQQT', 'false (0)'),
  ('KEFVGSGSPHSKAQNQQT', 'false (0)'),
  ('KTINGSGSPHSKRLEQQT', 'true (1)'),
  ('KAINRSGSPHSKAQDQQT', 'false (0)'),
  ('KTDRNSGSPHSKAQNQQT', 'true (1)');

* * *

- System: brain, spinal cord, and DRG of the NHPs
- testMethodNotes: NGS fold enrichment of synthetic library (passage 3) in NHPs, first cross-species screen
- Format: in vivo, cynomolgus macaques (Macaca fascicularis)
- assayConditions: synthetic library passage 3, intravenous, RNA from spinal cord of NHPs, NGS, relative to wild-type AAV9
Each record gets a class by Fold enrichment over AAV9 in the spinal cord of NHPs: bottom bin (below 1 fold), middle bin (1 fold to below 4 fold), top bin (4 fold or more)

INSERT INTO results (residues, assignedcategory) VALUES
  ('GSGQNPIRGAMQQT', 'middle bin'),
  ('GSGQNQQHSSKATT', 'top bin'),
  ('GSLVSTQSGQNQQT', 'middle bin'),
  ('GSGQNIGHSLPQQT', 'top bin'),
  ('GSGQNQRASILVQT', 'middle bin'),
  ('GSGQLPQSGLNQQT', 'middle bin'),
  ('GSDHSHRGGQNQQT', 'bottom bin'),
  ('GSSVNSMIGQNQQT', 'bottom bin'),
  ('GSGQNQDHQNKQQT', 'middle bin');

* * *

- System: brains, heart, liver, muscle, and DRG of the NHPs
- testMethodNotes: Maturation of TTM-001 and TTM-002 capsids, NGS enrichment in NHP tissues
- Type: in vivo
- assayConditions: NHP liver, RNA; relative to AAV9 control
Collected Fold Enrichment relative to AAV9, Liver RNA (NHP) values appear next to each entry.
quantityMeasured: Fold Enrichment relative to AAV9, Liver RNA (NHP) (fold)

INSERT INTO results (residues, reportedmeasurement) VALUES
  ('KTVNASGSPHSKAQNQLT', 0.000),
  ('KTINGSGSPHSKAQAKGT', 0.271),
  ('KNCWGSGSPHSKAQNQQT', 0.000),
  ('KTINGSGSPHSKAQNTHD', 0.410),
  ('KTINGSGSPHSKAQRTCT', 1.855),
  ('KTIDGSGSPHSKALNKQT', 0.000),
  ('KTINGSGSPHSKNQWQQT', 0.111),
  ('KTDVGSGSPHSKAQNQQT', 0.385),
  ('KTIRENGSPHSKAQNQQT', 0.131),
  ('KTINGSGSPHSKAQVPAT', 0.782),
  ('KTVNGSGSPHSKAQHLQT', 0.062),
  ('KTINGSGSPHSKAQYRAT', 0.690),
  ('KTINGSGSPHSKAQDRQS', 0.644),
  ('KTINGSGSPHSKAPSLQT', 0.902),
  ('KTINGSGSPHSKASPRQT', 1.761),
  ('KTINGSGSPHSKAQVGHT', 0.535),
  ('KTINGSGSPHSKAQVRNT', 0.230);
